Source: PubChem BioAssay (EPA / NIEHS)

experiment: BSK_KF3CT_SRB: Viability Assessment in the BioMAP Diversity Plus: KF3CT Assay (AID 2283069); conditions: primary human keratinocytes with fibroblasts;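 also: total protein by sulforhodamine B staining as a cytotoxicity measure; read 24 h after compound addition; fitted for both signal gain and loss against DMSO baseline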
Active and inactive are the calls of the source. The calls were made as follows: active = hit-call score of the fitted dose curve at least 0.9, where 1 is the maximum; inactive = score below 0.9.
Possible outcomes: YES (active), NO (inactive)

>>> df
                                   molecule  classification
0  OC[C@H]1O[C@H](O[C@]2(CCl)O[C@H](CCl)[C@@H](O)[C@@H]2O)[C@H](O)[C@@H](O)[C@H]1Cl              NO
1  CN(CCOc1ccc(CC2SC(=O)NC2=O)cc1)c1ccccn1 (stereo unspecified)              NO
2                    CNC[C@H](O)c1cccc(O)c1              NO
3              O=C(O)c1ccc([N+](=O)[O-])cc1              NO
4                    Cc1ccc(O)c(C(C)(C)C)c1             YES
5                               CCCCCCCCC=O              NO

---

Read-out: CD69, CD69 (gene 969)
Experiment: BSK_SAg_CD69: BioMAP Diversity Plus: SAg Assay for CD69 Biomarker Activity (AID 2283089)
Conditions: primary human HUVEC with PBMC; actives raise or lower the signal
Protocol: BSK_SAg is a cell-based, multiplexed-readout assay that uses umbilical vein endothelium and peripheral blood mononuclear cells, a human vascular primary cell co-culture, with measurements taken at 24 hours after chemical dosing in a 96-well plate.BSK_SAg_CD69 is one of 10 assay component(s) measured or calculated from the BSK_SAg assay. […] This assay endpoint, BSK_SAg_CD69, was analyzed with bidirectional fitting relative to DMSO as the negative control and baseline of activity. […]
Activity calls are given as the source filed them. The calls were made as follows: active = hit-call score of the fitted dose curve at least 0.9, where 1 is the maximum; inactive = score below 0.9.
Possible outcomes: active, inactive

                                    compound  classification
 0                      C=CCOC(=O)CCC1CCCCC1        inactive
 1       CCCCC(CC)COCCC#N (stereo not given)        inactive
 2                                   NCCNCCN        inactive
 3       c1ccc2sc(SN(C3CCCCC3)C3CCCCC3)nc2c1          active
 4                      C=C[Si](OCC)(OCC)OCC        inactive
 5                               CCCCCCCCC=O        inactive
 6                      CC(C)c1ccc(C(C)C)cc1        inactive
 7                 Nc1cc([N+](=O)[O-])ccc1Cl        inactive
 8     CC(C)(COC(=O)c1ccccc1)COC(=O)c1ccccc1          active
 9  O=C(O)c1cn(-c2ccc(F)cc2)c2cc(N3CCNCC3)c(F)cc2c1=O        inactive
10           CC[Si](OC(C)=O)(OC(C)=O)OC(C)=O        inactive
11  C#C[C@]1(O)CC[C@H]2[C@@H]3CCC4=Cc5oncc5C[C@]4(C)[C@H]3CC[C@@]21C        inactive
12          O=[N+]([O-])c1cc(C(F)(F)F)ccc1Cl        inactive
13                              CCCCCCCCCC=O          active
14  C=C(C)C(=O)O[C@H]1C[C@@H]2CC[C@@]1(C)C2(C)C          active
15  CC1COc2ccccc2N1C(=O)C(Cl)Cl (stereo not given)          active
16                     CCc1c(C)cc(N)c(CC)c1N        inactive
17                         CCCCC/C=C/C=C/C=O          active
18                    Cc1ccc(O)c(C(C)(C)C)c1          active
19           O=P(c1ccccc1)(c1ccccc1)c1ccccc1        inactive
20  O=C(O)C[C@H](O)C[C@H](O)/C=C/c1c(C2CC2)nc2ccccc2c1-c1ccc(F)cc1          active
21     CC1CCC(C(C)CS)CC1S (stereo not given)          active
22  O=C(O)c1cn(C2CC2)c2cc(N3CCNCC3)c(F)cc2c1=O        inactive
23                         CCC(=O)OCc1ccccc1        inactive
24                      O=C1CCCCCCCCCCCCCCO1          active
25  Cc1ccc(Nc2ccc(O)c3c2C(=O)c2ccccc2C3=O)cc1        inactive
26  CC(=O)OCCC(C)CC(C)(C)C (stereo not given)        inactive
27  CCCCC(CC)COC(=O)/C=C\C(=O)OCC(CC)CCCC (stereo not given)        inactive
28                           CC(C)Oc1ccccc1O        inactive
29                COc1cc(C=O)ccc1OC(=O)C(C)C        inactive
30                  Nc1cc([N+](=O)[O-])ccc1O        inactive
31  CN(CCOc1ccc(CC2SC(=O)NC2=O)cc1)c1ccccn1 (stereo not given)          active
32               CC(=O)/C=C/C1=C(C)CCCC1(C)C        inactive
33  Cc1cc(C2(c3cc(C)c(O)cc3C)OS(=O)(=O)c3ccccc32)c(C)cc1O        inactive
34  C[C@H]1C[C@@H]2[C@H]([C@@H](O)C[C@@]3(C)[C@H]2CC[C@]3(O)C(=O)CO)[C@@]2(C)C=CC(=O)C=C12        inactive

---

read-out: Vascular cell adhesion molecule 1 (VCAM1), VCAM1 (gene 7412); assay: BSK_CASM3C_VCAM1: BioMAP Diversity Plus: CASM3C Assay for Vascular cell adhesion molecule 1 (VCAM1) Biomarker Activity (AID 2283055); details: primary human coronary artery smooth muscle cells; actives raise or lower the signal;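 also: VCAM-1 protein level quantified by ELISA on the cells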
Active and inactive are the calls of the source. How the source made its calls: active means hit-call score of the fitted dose curve at least 0.9, where 1 is the maximum; inactive means score below 0.9.
Possible outcomes: 1 (yes) (active), 0 (no) (inactive)

>>> df
                                    molecule  classification
 0                 Nc1cc([N+](=O)[O-])ccc1Cl          0 (no)
 1  CN(CCOc1ccc(CC2SC(=O)NC2=O)cc1)c1ccccn1 (stereo not given)          0 (no)
 2  C=C(C)C(=O)O[C@H]1C[C@@H]2CC[C@@]1(C)C2(C)C         1 (yes)
 3          c1ccc2c(c1)c1cccc3ccc4cccc2c4c31          0 (no)
 4  CCCCCCCCCCCCCCCCCC(=O)OCC(CC)CCCC (stereo not given)          0 (no)
 5       CCCCC(CC)COCCC#N (stereo not given)          0 (no)
 6                      C=C[Si](OCC)(OCC)OCC          0 (no)
 7  Cc1ccc(Nc2ccc(O)c3c2C(=O)c2ccccc2C3=O)cc1          0 (no)
 8                               CCCCCCCCC=O          0 (no)
 9                           CC(C)Oc1ccccc1O          0 (no)
10  O=C(O)c1cn(-c2ccc(F)cc2)c2cc(N3CCNCC3)c(F)cc2c1=O          0 (no)
11                COc1cc(C=O)ccc1OC(=O)C(C)C          0 (no)
12  CC1COc2ccccc2N1C(=O)C(Cl)Cl (stereo not given)         1 (yes)
13     CC1CCC(C(C)CS)CC1S (stereo not given)         1 (yes)
14  C#C[C@]1(O)CC[C@H]2[C@@H]3CCC4=Cc5oncc5C[C@]4(C)[C@H]3CC[C@@]21C         1 (yes)
15  O=C1OC2(c3cc(Br)c(O)c(Br)c3Oc3c2cc(Br)c(O)c3Br)c2c(Cl)c(Cl)c(Cl)c(Cl)c21         1 (yes)
16                  CCn1c2ccccc2c2cc(N)ccc21          0 (no)
17  O=C=NC1CCC(CC2CCC(N=C=O)CC2)CC1 (stereo not given)          0 (no)
18                    CNC[C@H](O)c1cccc(O)c1          0 (no)
19          O=[N+]([O-])c1cc(C(F)(F)F)ccc1Cl          0 (no)
20                  Nc1cc([N+](=O)[O-])ccc1O          0 (no)
21                    Cc1ccc(O)c(C(C)(C)C)c1         1 (yes)
22  Cc1cc(C2(c3cc(C)c(O)cc3C)OS(=O)(=O)c3ccccc32)c(C)cc1O          0 (no)
23           CC[Si](OC(C)=O)(OC(C)=O)OC(C)=O          0 (no)
24  O=C(O)c1cn(C2CC2)c2cc(N3CCNCC3)c(F)cc2c1=O          0 (no)
25  N#Cc1ccc(CC(=NNC(=O)Nc2ccc(OC(F)(F)F)cc2)c2cccc(C(F)(F)F)c2)cc1          0 (no)
26                        COC(=O)c1ccc(C)cc1          0 (no)
27  OC[C@H]1O[C@H](O[C@]2(CCl)O[C@H](CCl)[C@@H](O)[C@@H]2O)[C@H](O)[C@@H](O)[C@H]1Cl          0 (no)
28                         Cc1ccc2n[nH]nc2c1          0 (no)
29     CC(C)(COC(=O)c1ccccc1)COC(=O)c1ccccc1          0 (no)
30                         CCCCC/C=C/C=C/C=O         1 (yes)
31                              CCCCCCCCCC=O          0 (no)
32  CCCCC(CC)COC(=O)/C=C\C(=O)OCC(CC)CCCC (stereo not given)         1 (yes)
33              O=C(O)c1ccc([N+](=O)[O-])cc1          0 (no)
34                      O=C1CCCCCCCCCCCCCCO1         1 (yes)
